measured on: Retinoic acid receptor RXR-alpha (Homo sapiens)
Sequence (whole entry): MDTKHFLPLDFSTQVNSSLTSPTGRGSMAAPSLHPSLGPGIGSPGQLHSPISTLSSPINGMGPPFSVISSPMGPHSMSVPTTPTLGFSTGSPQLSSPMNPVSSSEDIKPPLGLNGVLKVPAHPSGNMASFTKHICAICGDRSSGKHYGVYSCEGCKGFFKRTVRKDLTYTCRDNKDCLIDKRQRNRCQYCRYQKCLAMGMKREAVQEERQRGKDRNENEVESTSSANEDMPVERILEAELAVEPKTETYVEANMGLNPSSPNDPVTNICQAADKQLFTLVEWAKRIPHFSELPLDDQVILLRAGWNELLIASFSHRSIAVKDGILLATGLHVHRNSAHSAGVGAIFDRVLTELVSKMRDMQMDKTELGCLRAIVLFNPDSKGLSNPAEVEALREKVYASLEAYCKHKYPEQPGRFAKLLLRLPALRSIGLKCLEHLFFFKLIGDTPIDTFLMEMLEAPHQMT
method description: Agonist activity at Gal4-LBD fused RXRalpha (unknown origin) expressed in HEK293T cells assessed as fold activation after 14 to 16 hrs by dual-Glo luciferase assay relative to untreated control
Type: cell-based
recorded metric: fold change (FC)
Write no unit; give the number alone.

GET /values?readout=fold change (FC)&item= `Cc1cc(-c2cc(C(C)(C)C)cc(C(C)(C)C)c2)ccc1CC(=O)O`
3.5

GET /values?readout=fold change (FC)&item= `CCOc1cccc(-c2ccc(C(=O)O)cc2)c1`
11

----------
measured on: UniProtKB P19793
method description: Agonist activity at Gal4-LBD fused RXRalpha (unknown origin) expressed in HEK293T cells assessed as fold activation after 14 to 16 hrs by dual-Glo luciferase assay relative to untreated control
Type: cell-based
In this section, each of the compounds is paired with its reported fold change (FC).
Write no unit; give the number alone.

Check out these entries, answers already filled in.
GET /values?readout=fold change (FC)&item= `O=C(O)c1ccc(-c2cc(Cl)cc(Cl)c2)cc1`
38

GET /values?readout=fold change (FC)&item= `Cc1cc(C)cc(-c2ccc(C(=O)O)cc2)c1`
26

Attention now shifts to the item below.
GET /values?readout=fold change (FC)&item= `CC(C)(C)c1cc(-c2ccc(CCC(=O)O)cc2)cc(C(C)(C)C)c1`
21
